Procedure details: Unbound plasma concentration in rat at 10 uM measured after 4 hrs by equilibrium dialysis method
Assay type: ADME, cell-free
Readout label: fraction unbound at 4 h, 10 µM
Write the value as a bare number.

Please report fraction unbound at 4 h, 10 µM for the following molecule: `Cc1ncn(-c2ccc(C(=O)N[C@H]3[C@H]4CC[C@H]3N(c3ncc(Cl)c5cnoc35)C4)c(Cl)c2)n1`
0.051

---

Procedure details: Total clearance in rat at 1 mg/kg, iv
Assay type: ADME, organism-based
Test parameters: in vivo
Readout label: clearance (mL/min/kg)
Give the value, in units of mL/min/kg, as a plain number.

Please report clearance for the following compound: `Cc1ncn(-c2ccc(C(=O)N[C@H]3[C@H]4CC[C@H]3N(c3ncc(Cl)c5cnoc35)C4)c(Cl)c2)n1`
16.5

---

Procedure details: Cmax in rat at 10 mg/kg, po
Format: ADME, organism-based
Parameters: dose 10 mg/kg, route oral
Test parameters: in vivo
Readout label: Cmax (ng/mL)
Give the value, in units of ng/mL, as a plain number.

Please report Cmax for the following compound: `Cc1ncn(-c2ccc(C(=O)N[C@H]3[C@H]4CC[C@H]3N(c3ncc(Cl)c5cnoc35)C4)c(Cl)c2)n1`
1600

---

Procedure details: Metabolic stability in rat liver microsomes at 1 uM measured after 20 mins in presence of NADP+ by LC-MS/MS method
Type: ADME, microsome
Test parameters: read-out: Stability
Readout label: remaining at 20 min, 1 µM (%)
Give the value, in units of %, as a plain number.

Please report remaining at 20 min, 1 µM for the following molecule: `Cc1ncn(-c2ccc(C(=O)N[C@H]3[C@H]4CC[C@H]3N(c3ncc(Cl)c5cnoc35)C4)c(Cl)c2)n1`
24

---

Procedure details: Unbound plasma concentration in dog at 10 uM measured after 4 hrs by equilibrium dialysis method
Type: ADME, cell-free, Canis lupus familiaris
Readout label: fraction unbound at 4 h, 10 µM
Write the value as a bare number.

Please report fraction unbound at 4 h, 10 µM for the following compound: `Cc1ncn(-c2ccc(C(=O)N[C@H]3[C@H]4CC[C@H]3N(c3ncc(Cl)c5cnoc35)C4)c(Cl)c2)n1`
0.054

---

Answer each item with its documented Papp at 5 h, 5 µM.
Procedure details: Apparent permeability of the compound at 5 uM after 5 hrs by PAMPA
Type: physicochemical

Please report Papp at 5 h, 5 µM for the following compound: `Nc1noc2c(N3CC[C@@H](NC(=O)c4ccc(-n5cnnc5)cc4Cl)C3)ncc(Cl)c12`
0.7 ×10⁻⁶ cm/s

Please report Papp at 5 h, 5 µM for the following compound: `Cc1ncn(-c2ccc(C(=O)N[C@H]3[C@H]4CC[C@H]3N(c3ncc(Cl)c5cnoc35)C4)c(Cl)c2)n1`
6.5 ×10⁻⁶ cm/s

Please report Papp at 5 h, 5 µM for the following compound: `Nc1noc2c(N3CC[C@@H](NC(=O)c4ccc(-n5cnnc5C(F)F)cc4Cl)C3)ncc(Cl)c12`
2.7 ×10⁻⁶ cm/s

---

Procedure details: AUCt in dog at 0.3 mg/kg, iv
Type: ADME, organism-based, Canis lupus familiaris
Test parameters: in vivo
Readout label: AUC(0-t) (ng·h/mL)
Give the value, in units of ng·h/mL, as a plain number.

Please report AUC(0-t) for the following compound: `Cc1ncn(-c2ccc(C(=O)N[C@H]3[C@H]4CC[C@H]3N(c3ncc(Cl)c5cnoc35)C4)c(Cl)c2)n1`
1410

---

Procedure details: Metabolic stability in human liver microsomes at 1 uM measured after 20 mins in presence of NADP+ by LC-MS/MS method
Type: ADME, microsome
Test parameters: read-out: Stability
Readout label: remaining at 20 min, 1 µM (%)
Give the value, in units of %, as a plain number.

Please report remaining at 20 min, 1 µM for the following molecule: `Cc1ncn(-c2ccc(C(=O)N[C@H]3[C@H]4CC[C@H]3N(c3ncc(Cl)c5cnoc35)C4)c(Cl)c2)n1`
11

---

Procedure details: Volume of distribution at steady state in dog at 0.3 mg/kg, iv
Format: ADME, organism-based, Canis lupus familiaris
Test parameters: in vivo, read-out: Vdss
Readout label: Vd (L/kg)
Give the value, in units of L/kg, as a plain number.

Please report Vd for the following molecule: `Cc1ncn(-c2ccc(C(=O)N[C@H]3[C@H]4CC[C@H]3N(c3ncc(Cl)c5cnoc35)C4)c(Cl)c2)n1`
1.3

---

Readout label: IC50

GET IC50 where system = Coagulation factor X (Homo sapiens, UniProt P00742) and item = `Nc1noc2c(N3CC[C@@H](NC(=O)c4ccc(-n5cnnc5)cc4Cl)C3)ncc(Cl)c12`
Sequence (P00742 41-179 limits assumed): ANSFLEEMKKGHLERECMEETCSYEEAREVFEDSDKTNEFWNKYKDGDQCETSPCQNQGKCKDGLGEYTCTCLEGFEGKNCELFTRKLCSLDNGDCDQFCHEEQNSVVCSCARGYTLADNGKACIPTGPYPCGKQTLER
Sequence (P00742 235-488 limits assumed): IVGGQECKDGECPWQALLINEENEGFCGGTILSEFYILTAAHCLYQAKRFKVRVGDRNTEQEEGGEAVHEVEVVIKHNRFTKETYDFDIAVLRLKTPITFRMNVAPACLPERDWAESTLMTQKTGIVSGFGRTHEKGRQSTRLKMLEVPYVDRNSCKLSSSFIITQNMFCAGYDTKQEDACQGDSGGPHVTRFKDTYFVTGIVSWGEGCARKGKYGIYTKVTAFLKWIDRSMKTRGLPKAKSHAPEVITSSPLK
78 µM

GET IC50 where system = Coagulation factor X (Homo sapiens, UniProt P00742) and item = `Cc1ncn(-c2ccc(C(=O)N[C@H]3[C@H]4CC[C@H]3N(c3ncc(Cl)c5cnoc35)C4)c(Cl)c2)n1`
31 µM

GET IC50 where system = Coagulation factor X (Homo sapiens, UniProt P00742) and item = `Nc1noc2c(N3CC[C@@H](NC(=O)c4ccc(-n5cnc6ccccc65)cc4Cl)C3)ncc(Cl)c12`
> 100 µM

GET IC50 where system = Coagulation factor X (Homo sapiens, UniProt P00742) and item = Cc1ccc(N2CCC(C)(NC(=O)c3ccc(-n4cnnc4)cc3Cl)C2)c([N+](=O)[O-])c1 (centres undefined)
> 100 µM

GET IC50 where system = Coagulation factor X (Homo sapiens, UniProt P00742) and item = Nc1noc2c(N3CCC(NC(=O)c4ccc(-n5cnnc5)cc4Cl)C3)cccc12 (racemic)
> 100 µM

GET IC50 where system = Coagulation factor X (Homo sapiens, UniProt P00742) and item = `Cc1cc2c(N)noc2c(N2CC[C@@H](NC(=O)c3ccc(-n4cnnc4)cc3Cl)C2)n1`
> 100 µM

GET IC50 where system = Coagulation factor X (Homo sapiens, UniProt P00742) and item = Nc1noc2c(N3CCC(NC(=O)c4ccc(-n5cnnc5)cc4Cl)C3)cc(Cl)cc12 (racemic)
> 100 µM

GET IC50 where system = Coagulation factor X (Homo sapiens, UniProt P00742) and item = Nc1noc2c(N3CCC(NC(=O)c4ccc(-n5cnnc5)cc4Cl)C3)nccc12 (racemic)
> 100 µM

GET IC50 where system = Coagulation factor X (Homo sapiens, UniProt P00742) and item = `Cn1ncn(-c2ccc(C(=O)N[C@@H]3CCN(c4ncc(Cl)c5c(N)noc45)C3)c(Cl)c2)c1=O`
> 100 µM

---

Procedure details: Half life in rat at 1 mg/kg, iv
Assay type: ADME, organism-based
Test parameters: in vivo
Readout label: half-life (min)
Give the value, in units of min, as a plain number.

Please report half-life for the following compound: `Cc1ncn(-c2ccc(C(=O)N[C@H]3[C@H]4CC[C@H]3N(c3ncc(Cl)c5cnoc35)C4)c(Cl)c2)n1`
48

---

Procedure details: Oral bioavailability in rat at 10 mg/kg
Type: ADME, organism-based
Test parameters: in vivo
Readout label: bioavailability

Please report bioavailability for the following compound: `Cc1ncn(-c2ccc(C(=O)N[C@H]3[C@H]4CC[C@H]3N(c3ncc(Cl)c5cnoc35)C4)c(Cl)c2)n1`
51%

---

Procedure details: Apparent permeability in MDCK cells at 5 uM after 1 hr by LC-MS/MS method
Format: ADME, cell-based, Canis lupus familiaris
Test parameters: dog
Readout label: Papp at 1 h, 5 µM (nm/s)
Give the value, in units of nm/s, as a plain number.

Please report Papp at 1 h, 5 µM for the following molecule: `Cc1ncn(-c2ccc(C(=O)N[C@H]3[C@H]4CC[C@H]3N(c3ncc(Cl)c5cnoc35)C4)c(Cl)c2)n1`
145

---

Answer each item with its documented fraction unbound at 4 h, 10 µM.
Procedure details: Unbound plasma concentration in human at 10 uM measured after 4 hrs by equilibrium dialysis method
Format: ADME, cell-free
Write the value as a bare number.

Please report fraction unbound at 4 h, 10 µM for the following compound: `Nc1noc2c(N3CC[C@@H](NC(=O)c4ccc(-n5cnnc5)cc4Cl)C3)ncc(Cl)c12`
0.012

Please report fraction unbound at 4 h, 10 µM for the following compound: `Cn1cc(-c2ccc(C(=O)N[C@@H]3CCN(c4ncc(Cl)c5c(N)noc45)C3)c(Cl)c2)ccc1=O`
0.004

Please report fraction unbound at 4 h, 10 µM for the following compound: `Cc1ncn(-c2ccc(C(=O)N[C@@H]3CCN(c4ncc(Cl)c5c(N)noc45)C3)c(Cl)c2)n1`
0.002

Please report fraction unbound at 4 h, 10 µM for the following compound: `Cn1ncn(-c2ccc(C(=O)N[C@@H]3CCN(c4ncc(Cl)c5c(N)noc45)C3)c(Cl)c2)c1=O`
0.016

Please report fraction unbound at 4 h, 10 µM for the following compound: `Nc1noc2c(N3CC[C@@H](NC(=O)c4ccc(-c5cncnc5)cc4Cl)C3)ncc(Cl)c12`
0.002

Please report fraction unbound at 4 h, 10 µM for the following compound: `Cn1cc(-c2ccc(C(=O)N[C@@H]3CCN(c4ncc(Cl)c5c(N)noc45)C3)c(Cl)c2)cnc1=O`
0.017

Please report fraction unbound at 4 h, 10 µM for the following compound: `Cc1ncn(-c2ccc(C(=O)N[C@H]3[C@H]4CC[C@H]3N(c3ncc(Cl)c5cnoc35)C4)c(Cl)c2)n1`
0.041

Please report fraction unbound at 4 h, 10 µM for the following compound: `Nc1noc2c(N3CC[C@@H](NC(=O)c4ccc(-n5cnc(CCO)c5)cc4Cl)C3)ncc(Cl)c12`
0.005

Please report fraction unbound at 4 h, 10 µM for the following compound: `Nc1noc2c(N3CC[C@@H](NC(=O)c4ccc(-n5cnnc5C(F)F)cc4Cl)C3)ncc(Cl)c12`
0.012

Please report fraction unbound at 4 h, 10 µM for the following compound: `Nc1noc2c(N3CC[C@@H](NC(=O)c4ccc(-n5cnc6ncccc65)cc4Cl)C3)ncc(Cl)c12`
0.008

Please report fraction unbound at 4 h, 10 µM for the following compound: `Nc1noc2c(N3CC[C@@H](NC(=O)c4ccc(-n5cnc6ccccc65)cc4Cl)C3)ncc(Cl)c12`
0.001
